Field: protein stability index. Provide a value for each of the variants that follow.
B1: CLPTM1 (parent)
chain: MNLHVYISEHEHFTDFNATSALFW

variants of: B1; assay: protein stability index of a GFP-peptide fusion (GPS, HEK-293T) (PSI 1-6); higher = more stable; settings: c terminus: a fixed tail appended;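 also: lentivirally expressed fusions sorted by FACS into six bins by GFP to DsRed ratio, PSI derived from sequencing read proportions per bin multiplied by bin number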
Numbers only.

Reported protein stability index for MNLHVYIYEHEHFTDFNATSALFW : what is it?
2.98

// each variant listed below needs its protein stability index
1. MNLHVYISEHEHQTDFNATSALFW
2. MNLHVYISEHEHRTDFNATSALFW
3. MNLHVYISEHEHFTDFNATGALFW
4. MNLHVYISEHEHFTDFNATRALFW
5. MNLHVYISEHEHFTDFNATSALEW

2.2
2.5
2.69
2.1
1.81

Give one value of protein stability index per listed variant.
1. MNLHVYISEHEHFTDFNATSALNW
2. MNLHVYASEHEHFTDFNATSALFW
3. MNLHVYISEHEHFTDFNATNALFW
4. MNLHVYISEHEHFTDFNATSALFS
5. MNLHSYISEHEHFTDFNATSALFW
6. MNLHVYISEHVHFTDFNATSALFW
7. MNLHVYISEHEHFTDFNATMALFW
8. MNLHVYISEHEHFTDFKATSALFW

1: 2.46; 2: 2.6; 3: 3.39; 4: 3.64; 5: 3.51; 6: 4.02; 7: 2.64; 8: 3.02

Look up protein stability index for the entries below, preserving their order.
1. MNLHVYISEHEHFTDFNHTSALFW
2. YNLHVYISEHEHFTDFNATSALFW
3. MNLHVYISEHEHFTDFNADSALFW
4. MNLHVYISEHEHFTDFSATSALFW
5. MNLHVYISEHEHFTDFIATSALFW

3.29
2.55
2.48
2.44
3.01

I'm hoping you can list protein stability index for every variant here, please.
1. MNLHVYISEHQHFTDFNATSALFW
2. MNLHVYISEHEHFTDFNATSARFW
3. MNLHVYISEHTHFTDFNATSALFW
4. MNLHVYISEIEHFTDFNATSALFW

2.87
1.1
2.47
1.28

Batch of 8 variants: report protein stability index for each.
1. MNFHVYISEHEHFTDFNATSALFW
2. MNLHVYISEHEHFTDRNATSALFW
3. ENLHVYISEHEHFTDFNATSALFW
4. MNLHVYISEHEHFTDFNATSGLFW
5. MILHVYISEHEHFTDFNATSALFW
6. MNLHVYISEHEHFTDFNATSALFY
7. MNLHVYISEHEHFTDNNATSALFW
8. MNLHVYYSEHEHFTDFNATSALFW

1. 2.7
2. 1.62
3. 1.33
4. 3.69
5. 2.04
6. 2.95
7. 2.56
8. 4.01

Need protein stability index for each of these variants.
1. MNLHVYISEHEHFPDFNATSALFW
2. MNLHVYISEHEHFTDFNATDALFW
3. MNLHVYISEHEHFTDENATSALFW
4. MPLHVYISEHEHFTDFNATSALFW
5. MNLHVIISEHEHFTDFNATSALFW
6. MNLHVYISEHEHFTDFEATSALFW
7. MNLHVYISEHEHLTDFNATSALFW
8. MNLHVYIIEHEHFTDFNATSALFW

4.65
4.08
2.87
1.55
2.61
3.66
4.51
1.69

For each of the variants below, note its protein stability index.
1. MNLHVYISEHEHFTDFNATSAQFW
2. MNLHVYISEHEHFTDFAATSALFW
3. MNLHLYISEHEHFTDFNATSALFW
4. MNLHVYISEHEHFTDFPATSALFW
5. MNLHVYISEHESFTDFNATSALFW
6. MNLHVYISEHECFTDFNATSALFW

3.16
2.59
2.05
3.96
1.83
2.72

Please state protein stability index for every variant in the list that follows.
1. MNLMVYISEHEHFTDFNATSALFW
2. MNLHVYISEHEWFTDFNATSALFW
3. MNLHVYISEHEHFYDFNATSALFW
4. MNLHVYISEHEHFTDFNATSALYW
5. MNLHVYISEHEHFTDFNATSAAFW
6. MNLHVYISEHEHFTDFNATSALFR
7. GNLHVYISEHEHFTDFNATSALFW

2.69
3.67
1.62
5.1
4.09
2.96
2.8
